Each recorded value in this set is attributed to PubChem BioAssay (NCI).

system: XF 498 CNS; experiment: NCI tumour cell line growth inhibition, 48 h
Measured Property: log10 of TGI (log10 of the value in µM)
// stored as log10 of TGI expressed in µM

q: Find the measured log10 of TGI: item CC(C)(C)c1cc(C(O)(C(F)(F)F)C(F)(F)F)c2c(c1)C(C(F)(F)F)(C(F)(F)F)OC(C)(C(C)(C)C)N2 (stereo not given) , target or system XF 498 CNS.
a: 0.63

q: For XF 498 CNS, provide log10 of TGI of C#Cc1cccc(N2C(=O)c3c(c(-c4ccccc4)c(-c4ccc(Cc5ccc(-c6c(-c7ccccc7)c7c(c(-c8ccccc8)c6-c6ccccc6)C(=O)N(c6cccc(C#C)c6)C7=O)cc5)cc4)c(-c4ccccc4)c3-c3ccccc3)C2=O)c1 please.
a: 1.86

q: # query: log10 of TGI | item CCC1CC2C(=O)N(c3ccccc3)C(=O)C2c2[nH]c3ccccc3c21 (stereo not given) | system: XF 498 CNS
a: 1.62

q: Give XF 498 CNS log10 of TGI for CCOC(=O)C(=O)Nc1ccccc1C
a: 1.94

q: # query: log10 of TGI | item CCN(CC)CCCNc1ccc2nc(C)n3c4ccc(O)cc4c(=O)c1c23 | system: XF 498 CNS
a: 1.37
